# ASSAYED SYSTEM: Cyclin-dependent kinase 2 (Homo sapiens)
QUANTITY MEASURED: IC50

> print(dat)
                                   molecule  measured
1  COc1cc2c(Nc3ccc(Br)cc3F)ncnc2cc1OCCn1ccnn1 [ZD-4190 FREE BASE]   > 10 µM

----------
# PROTOCOL SUMMARY: Binding affinity to serum protein in rat
# Format: ADME, organism-based
# MEASUREMENT PARAMETERS: read-out: %Bound_Plasma (converted)
QUANTITY MEASURED: fraction unbound

> print(dat)
                                   compound  measured
1  COc1cc2c(Nc3ccc(Br)cc3F)ncnc2cc1OCCn1ccnn1 [ZD-4190 FREE BASE]      0.05

----------
# PROTOCOL SUMMARY: physchem
# MEASUREMENT PARAMETERS: pH 7.4
QUANTITY MEASURED: pKa

> print(dat)
                           structure.string  measured
1  COc1cc2c(Nc3ccc(Cl)cc3F)ncnc2cc1OCCCN1CCOCC1       7.2

----------
Listed here: items and their measured solubility.
# PROTOCOL SUMMARY: solubility was determined using free base at pH 7
# Format: physicochemical
# MEASUREMENT PARAMETERS: buffer
QUANTITY MEASURED: solubility

> print(dat)
                           structure.string  measured
1  COc1cc2c(Nc3ccc(Cl)cc3F)ncnc2cc1OCCCN1CCOCC1     20 µM
2  COc1cc2c(Nc3ccc(Cl)cc3F)ncnc2cc1OCCCN1CCN(C)CC1.Cl     60 µM

----------
# PROTOCOL SUMMARY: pKa value at a pH of […].
# Format: physicochemical
# MEASUREMENT PARAMETERS: pH 7.4
QUANTITY MEASURED: pKa

> print(dat)
                                   compound  quantity.measured  measured
1  COc1cc2c(Nc3ccc(Br)cc3F)ncnc2cc1OCCn1ccnn1 [ZD-4190 FREE BASE]                pKa       5.3

----------
# ASSAYED SYSTEM: UniProt O15530
# Sequence (O15530 whole entry): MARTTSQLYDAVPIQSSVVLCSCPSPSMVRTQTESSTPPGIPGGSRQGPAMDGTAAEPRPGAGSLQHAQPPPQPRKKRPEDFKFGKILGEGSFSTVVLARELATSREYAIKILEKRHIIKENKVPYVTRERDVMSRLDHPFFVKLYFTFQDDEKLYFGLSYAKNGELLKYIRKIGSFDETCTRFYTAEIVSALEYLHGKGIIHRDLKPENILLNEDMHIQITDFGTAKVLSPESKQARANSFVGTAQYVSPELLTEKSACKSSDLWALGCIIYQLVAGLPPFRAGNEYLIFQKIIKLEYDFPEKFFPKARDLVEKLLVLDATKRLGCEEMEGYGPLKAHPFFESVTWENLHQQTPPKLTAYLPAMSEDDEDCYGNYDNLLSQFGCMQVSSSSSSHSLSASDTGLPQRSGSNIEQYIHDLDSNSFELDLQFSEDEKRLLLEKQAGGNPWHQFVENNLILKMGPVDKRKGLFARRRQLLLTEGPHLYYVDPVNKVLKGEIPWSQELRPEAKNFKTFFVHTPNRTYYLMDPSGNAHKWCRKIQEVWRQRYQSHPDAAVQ
QUANTITY MEASURED: IC50

> print(dat)
                                   compound  quantity.measured  measured
1  COc1cc2c(Nc3ccc(Br)cc3F)ncnc2cc1OCCn1ccnn1 [ZD-4190 FREE BASE]               IC50   > 20 µM
